Hi there, I'd appreciate the recorded IC50 for every entry that follows.
Target of assay: ATR (Homo sapiens)
Construct: obtained from HeLa nuclear extract (CIL Biotech, Mons, Belgium) by immunoprecipitation with rabbit polyclonal antiserum raised to amino acids 400-480 of ATR; host or cells: HeLa nuclear extract
Sequence (Q13535 whole entry, the tested form may be a part): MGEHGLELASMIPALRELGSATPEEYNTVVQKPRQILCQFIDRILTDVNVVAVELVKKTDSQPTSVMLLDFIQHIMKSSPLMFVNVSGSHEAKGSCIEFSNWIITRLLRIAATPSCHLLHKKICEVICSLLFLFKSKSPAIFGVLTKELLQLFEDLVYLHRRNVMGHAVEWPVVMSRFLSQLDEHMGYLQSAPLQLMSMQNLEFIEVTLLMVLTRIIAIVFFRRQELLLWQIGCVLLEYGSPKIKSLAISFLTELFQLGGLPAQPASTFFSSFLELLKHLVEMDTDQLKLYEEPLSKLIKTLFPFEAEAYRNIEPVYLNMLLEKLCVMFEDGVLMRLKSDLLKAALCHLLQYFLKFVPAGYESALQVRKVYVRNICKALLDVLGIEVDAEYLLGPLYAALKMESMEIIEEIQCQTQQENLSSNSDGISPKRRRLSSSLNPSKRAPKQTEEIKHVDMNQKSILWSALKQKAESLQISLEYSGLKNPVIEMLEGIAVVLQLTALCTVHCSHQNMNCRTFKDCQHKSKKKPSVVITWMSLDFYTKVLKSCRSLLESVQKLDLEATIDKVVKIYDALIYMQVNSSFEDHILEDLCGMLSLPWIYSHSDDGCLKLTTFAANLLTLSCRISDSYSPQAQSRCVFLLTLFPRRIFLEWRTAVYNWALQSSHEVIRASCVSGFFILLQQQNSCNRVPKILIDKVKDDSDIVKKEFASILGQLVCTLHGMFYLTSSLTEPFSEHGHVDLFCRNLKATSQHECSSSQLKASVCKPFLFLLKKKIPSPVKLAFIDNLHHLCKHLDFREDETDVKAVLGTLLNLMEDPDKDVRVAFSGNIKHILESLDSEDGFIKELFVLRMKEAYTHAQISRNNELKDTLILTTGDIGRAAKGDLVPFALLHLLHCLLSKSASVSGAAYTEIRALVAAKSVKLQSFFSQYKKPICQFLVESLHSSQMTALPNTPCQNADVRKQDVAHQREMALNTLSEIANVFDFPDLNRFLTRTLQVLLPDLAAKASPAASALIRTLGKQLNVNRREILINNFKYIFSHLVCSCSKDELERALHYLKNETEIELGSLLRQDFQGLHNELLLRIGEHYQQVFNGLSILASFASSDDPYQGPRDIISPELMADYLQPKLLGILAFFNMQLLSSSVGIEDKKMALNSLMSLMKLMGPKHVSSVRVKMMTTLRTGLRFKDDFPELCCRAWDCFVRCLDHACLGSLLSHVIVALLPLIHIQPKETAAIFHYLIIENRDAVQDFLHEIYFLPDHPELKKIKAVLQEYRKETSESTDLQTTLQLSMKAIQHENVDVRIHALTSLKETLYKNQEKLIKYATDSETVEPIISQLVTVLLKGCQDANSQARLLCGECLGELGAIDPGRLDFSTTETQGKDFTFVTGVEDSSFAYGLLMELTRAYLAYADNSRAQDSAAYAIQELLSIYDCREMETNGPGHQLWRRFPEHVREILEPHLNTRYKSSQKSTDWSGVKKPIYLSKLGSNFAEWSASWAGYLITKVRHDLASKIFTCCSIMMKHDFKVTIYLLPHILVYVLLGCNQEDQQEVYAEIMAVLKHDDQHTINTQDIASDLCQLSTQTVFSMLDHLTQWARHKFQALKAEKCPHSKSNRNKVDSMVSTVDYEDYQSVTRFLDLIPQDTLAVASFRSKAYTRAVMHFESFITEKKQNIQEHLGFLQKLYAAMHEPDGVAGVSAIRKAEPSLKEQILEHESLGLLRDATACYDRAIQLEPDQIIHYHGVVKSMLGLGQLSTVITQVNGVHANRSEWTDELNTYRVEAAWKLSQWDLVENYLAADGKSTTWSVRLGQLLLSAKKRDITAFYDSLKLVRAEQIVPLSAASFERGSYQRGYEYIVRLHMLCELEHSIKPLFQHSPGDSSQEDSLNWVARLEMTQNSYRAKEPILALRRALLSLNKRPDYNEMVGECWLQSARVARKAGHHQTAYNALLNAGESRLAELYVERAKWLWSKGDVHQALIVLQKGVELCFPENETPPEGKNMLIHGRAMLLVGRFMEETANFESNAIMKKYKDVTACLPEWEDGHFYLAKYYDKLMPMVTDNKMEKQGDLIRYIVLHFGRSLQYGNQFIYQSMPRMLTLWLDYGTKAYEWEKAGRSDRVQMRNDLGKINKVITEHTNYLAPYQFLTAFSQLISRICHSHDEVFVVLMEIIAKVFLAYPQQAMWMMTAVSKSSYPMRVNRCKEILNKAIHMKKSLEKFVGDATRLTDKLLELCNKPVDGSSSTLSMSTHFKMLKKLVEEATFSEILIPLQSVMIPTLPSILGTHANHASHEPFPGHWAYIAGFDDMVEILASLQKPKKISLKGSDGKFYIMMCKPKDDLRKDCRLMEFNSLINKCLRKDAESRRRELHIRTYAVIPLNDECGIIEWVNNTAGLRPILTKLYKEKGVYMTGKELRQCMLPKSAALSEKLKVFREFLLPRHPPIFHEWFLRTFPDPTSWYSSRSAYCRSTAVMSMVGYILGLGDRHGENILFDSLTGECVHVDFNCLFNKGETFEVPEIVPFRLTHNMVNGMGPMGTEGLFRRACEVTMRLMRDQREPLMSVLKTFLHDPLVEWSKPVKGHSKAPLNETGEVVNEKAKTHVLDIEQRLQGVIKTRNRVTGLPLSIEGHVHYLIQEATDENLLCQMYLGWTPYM
Sequence (Q8WXE1 whole entry partner, the tested form may be a part): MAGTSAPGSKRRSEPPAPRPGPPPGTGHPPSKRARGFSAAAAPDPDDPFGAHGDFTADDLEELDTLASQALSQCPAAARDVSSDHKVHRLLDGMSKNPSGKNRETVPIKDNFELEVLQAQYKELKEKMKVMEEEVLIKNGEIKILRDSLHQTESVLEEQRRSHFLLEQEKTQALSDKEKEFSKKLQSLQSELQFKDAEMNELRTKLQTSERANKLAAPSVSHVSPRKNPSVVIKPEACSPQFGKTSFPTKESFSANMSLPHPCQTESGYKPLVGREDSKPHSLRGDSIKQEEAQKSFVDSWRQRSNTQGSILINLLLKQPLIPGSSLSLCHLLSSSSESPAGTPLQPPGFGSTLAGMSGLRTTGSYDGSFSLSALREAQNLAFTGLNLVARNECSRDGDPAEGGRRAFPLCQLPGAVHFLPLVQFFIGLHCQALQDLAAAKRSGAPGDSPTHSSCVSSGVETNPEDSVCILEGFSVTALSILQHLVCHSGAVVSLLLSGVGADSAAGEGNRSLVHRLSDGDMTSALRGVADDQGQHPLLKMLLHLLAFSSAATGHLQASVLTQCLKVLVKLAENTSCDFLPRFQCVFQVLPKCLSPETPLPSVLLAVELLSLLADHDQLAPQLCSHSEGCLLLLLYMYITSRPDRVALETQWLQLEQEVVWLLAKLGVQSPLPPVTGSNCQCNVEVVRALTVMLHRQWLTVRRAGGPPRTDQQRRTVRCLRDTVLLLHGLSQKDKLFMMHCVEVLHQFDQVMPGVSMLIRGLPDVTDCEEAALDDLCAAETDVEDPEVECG
Assay: Enzyme Assay - ATR (Test (a));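 note: kinase activity of bead-bound ATR toward a GST-p53 N-terminal fragment substrate, 1 h at 37 °C, read by chemiluminescence, with inhibitor-free wells as control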
Format: biochemical
Settings: ATR immunoprecipitated from HeLa nuclear extract; 3 μM ATP; average of individual tests; read-out: ATR average IC50
// note: answer is a bare numeric in nM

## Input I would be grateful if you could share the reported IC50 for C[C@@H]1COCCN1c1cc(C2(S(C)(=O)=O)CCOCC2)nc(-c2cc(Cl)cc3[nH]ccc23)n1 .
## Output 2.5

## Input Next entry: CC(C)S(=O)(=O)C1(c2cc(N3CCOC[C@H]3C)nc(-c3cccc4[nH]ccc34)n2)CCOCC1
## Output 261

## Input Likewise for C[C@@H]1COC[C@H](C)N1c1cc(C2(S(C)(=O)=O)CC2)nc(-c2cccc3[nH]ccc23)n1 ?
## Output 20.2

## Input Follow-up item: C[C@H]1COCCN1c1cc(C2(S(=O)(=O)C3CC3)CCNCC2)nc(-c2cccc3[nH]ccc23)n1
## Output 26.8

## Input Again, but for Cc1cc(-c2nc(N3CCOC[C@H]3C)cc(C3(S(C)(=O)=O)CCOCC3)n2)c2cc[nH]c2c1
## Output 1.58

## Input Another compound to look at: C[C@H]1COCCN1c1cc(C2(S(=O)(=O)C3CC3)CCOCC2)nc(-c2cccc3[nH]ccc23)n1
## Output 376

## Input // same read-out, input: Cc1cc2c(-c3nc(N4CCOC[C@H]4C)cc(C4(S(C)(=O)=O)CC4)n3)cccc2[nH]1
## Output 5.46

## Input Also O=S(=O)(C1CC1)C1(c2cc(N3CCOCC3)nc(-c3cccc4[nH]ccc34)n2)CC1 , if possible.
## Output 32.1

## Input Further, for C[C@H]1COCCN1c1cc(C2(S(C)(=O)=O)CCOCC2)nc(-c2cccc3[nH]ccc23)n1 ?
## Output 4.55
